- Assay Target: UniProt:Q03284
- Assay Name: Inhibition of bacterial urease using urea as substrate preincubated for 15 mins followed by substrate addition […]
IC50 strictly under 60 µM means Met; at 60 µM or over means Not met.

Illustrative cases are given below, each with its answer.
Molecule: O=S(=O)(CCCl)N/N=C(\c1ccccc1)c1ccc(O)cc1
Class Name: Met
//
Molecule: CC(=O)NO [ACETOHYDROXAMIC ACID]
Class Name: Met
//
Molecule: CS(=O)(=O)N/N=C(\c1ccccc1)c1ccc(O)cc1
Class Name: Met
//
Molecule: O=S(=O)(N/N=C(\c1ccccc1)c1ccc(O)cc1)c1cc(Cl)c(Cl)cc1Cl
Class Name: Met
//
Molecule: Cc1ccc([N+](=O)[O-])cc1S(=O)(=O)NN=C(c1ccccc1)c1ccccc1
Class Name: Not met

Now for a further molecule.
Is the reported IC50 for O=S(=O)(NN=C(c1ccccc1)c1ccccc1)c1ccc(Cl)cc1 strictly below 60 µM?
Not met
